# assay.explanation: Metabolic stability of HCPT in rat liver microsomes with or without verapamil
# Format: in vitro ADME
# condition.parameters: pH 7.4, without verapamil, read-out: intrinsic clearance rate
observable: microsomal CLint at 1 µM

Inquiry: Please give the measured microsomal CLint at 1 µM for this molecule: CC[C@@]1(O)C(=O)OCc2c1cc1n(c2=O)Cc2cc3cc(O)ccc3nc2-1 [HCPT, Hydroxycamptothecin]
Reply text: 39.5 µL/min/mg

###

# assay.explanation: Metabolic stability of HCPT in rat liver microsomes with or without verapamil
# Format: in vitro ADME
# condition.parameters: pH 7.4, with verapamil, final concentration 0.1 µM, in the presence of verapamil (preincubation 30 min at 37 °C), read-out: intrinsic clearance rate
observable: microsomal CLint at 1 µM
Quick note: unit goes after the number.

Inquiry: Give its microsomal CLint at 1 µM value. Item: CC[C@@]1(O)C(=O)OCc2c1cc1n(c2=O)Cc2cc3cc(O)ccc3nc2-1 [HCPT, Hydroxycamptothecin]
Reply text: 28.6 µL/min/mg

###

# assay.explanation: In vivo pharmacokinetic study of oral HCPT in rats with or without verapamil pre-treatment
# condition.parameters: male, Sprague-Dawley, rat, plasma, 50 mg/kg, HCPT 50 mg/kg intragastric/oral, control (no verapamil), n = 6, Mean ± S.D.
observable: AUC(0-t) (ng·h/mL)
Expressed in ng·h/mL, but write only the number.

Inquiry: Form field: reported AUC(0-t) of CC[C@@]1(O)C(=O)OCc2c1cc1n(c2=O)Cc2cc3cc(O)ccc3nc2-1 [HCPT, Hydroxycamptothecin]
Reply text: 660

###

# assay.explanation: In vivo pharmacokinetic study of oral HCPT in rats with or without verapamil pre-treatment
# condition.parameters: male, Sprague-Dawley, rat, plasma, 50 mg/kg, HCPT 50 mg/kg intragastric/oral, control (no verapamil), n = 6, Mean ± S.D.
# Method: Male Sprague–Dawley rats weighing 230–250 g were provided by Shanghai SLAC Laboratory Animal Co., Ltd (Shanghai, China). Rats were bred in a breeding room at 25 °C with 60 ± 5% humidity and a 12 h dark-light cycle. Tap water and normal chow were given ad libitum. All of the experimental animals were housed under the above conditions, for a 3-day acclimation period and fasted overnight before the experiments. […]
observable: MRT

Inquiry: Which MRT value is on record for CC[C@@]1(O)C(=O)OCc2c1cc1n(c2=O)Cc2cc3cc(O)ccc3nc2-1 [HCPT, Hydroxycamptothecin] ?
Reply text: 9.61 h

###

# assay.explanation: In vivo pharmacokinetic study of oral HCPT in rats with or without verapamil pre-treatment
# condition.parameters: male, Sprague-Dawley, rat, plasma, 50 mg/kg, HCPT 50 mg/kg intragastric/oral, control (no verapamil), n = 6, Mean ± S.D.
observable: half-life (h)
Answer format: numeric, h implied, no suffix.

Inquiry: State the recorded half-life for this entry: CC[C@@]1(O)C(=O)OCc2c1cc1n(c2=O)Cc2cc3cc(O)ccc3nc2-1 [HCPT, Hydroxycamptothecin]
Reply text: 17.7

###

# assay.explanation: In vivo pharmacokinetic study of oral HCPT in rats with or without verapamil pre-treatment
# condition.parameters: male, Sprague-Dawley, rat, plasma, 50 mg/kg, HCPT 50 mg/kg intragastric/oral, pre-treatment of verapamil 10 mg/kg/day for 7 days, n = 6, Mean ± S.D., read-out: CLz/F (oral clearance) (converted)
observable: CL/F (mL/min/kg)
Write it as a number; the unit mL/min/kg goes unstated.

Inquiry: Reported CL/F for CC[C@@]1(O)C(=O)OCc2c1cc1n(c2=O)Cc2cc3cc(O)ccc3nc2-1 [HCPT, Hydroxycamptothecin] : what is it?
Reply text: 549

###

# assay.explanation: In vivo pharmacokinetic study of oral HCPT in rats with or without verapamil pre-treatment
# condition.parameters: male, Sprague-Dawley, rat, plasma, 50 mg/kg, HCPT 50 mg/kg intragastric/oral, control (no verapamil), n = 6, Mean ± S.D.
observable: Cmax (ng/mL)
Give the quantity in ng/mL, number only.

Inquiry: If you can, please state the reported Cmax value of CC[C@@]1(O)C(=O)OCc2c1cc1n(c2=O)Cc2cc3cc(O)ccc3nc2-1 [HCPT, Hydroxycamptothecin] .
Reply text: 92

###

# assay.explanation: In vivo pharmacokinetic study of oral HCPT in rats with or without verapamil pre-treatment
# condition.parameters: male, Sprague-Dawley, rat, plasma, 50 mg/kg, HCPT 50 mg/kg intragastric/oral, pre-treatment of verapamil 10 mg/kg/day for 7 days, n = 6, Mean ± S.D.
observable: MRT (h)
Reply numerically in h, unit not repeated.

Inquiry: Look at this compound and give its reported MRT. CC[C@@]1(O)C(=O)OCc2c1cc1n(c2=O)Cc2cc3cc(O)ccc3nc2-1 [HCPT, Hydroxycamptothecin]
Reply text: 11.4

###

# assay.explanation: In vivo pharmacokinetic study of oral HCPT in rats with or without verapamil pre-treatment
# condition.parameters: male, Sprague-Dawley, rat, plasma, 50 mg/kg, HCPT 50 mg/kg intragastric/oral, pre-treatment of verapamil 10 mg/kg/day for 7 days, n = 6, Mean ± S.D.
# Method: Male Sprague–Dawley rats weighing 230–250 g were provided by Shanghai SLAC Laboratory Animal Co., Ltd (Shanghai, China). Rats were bred in a breeding room at 25 °C with 60 ± 5% humidity and a 12 h dark-light cycle. Tap water and normal chow were given ad libitum. All of the experimental animals were housed under the above conditions, for a 3-day acclimation period and fasted overnight before the experiments. […]
observable: AUC(0-t) (ng·h/mL)
The response must be a number in ng·h/mL with no trailing unit.

Inquiry: I am curious: what AUC(0-t) value has been reported for CC[C@@]1(O)C(=O)OCc2c1cc1n(c2=O)Cc2cc3cc(O)ccc3nc2-1 [HCPT, Hydroxycamptothecin] ?
Reply text: 1140

###

# Test system: P-gp
# assay.explanation: Bidirectional transport of HCPT in the Caco-2 cell transwell model with or without verapamil
# condition.parameters: human, Caco-2, efflux ratio, Caco-2 transwell, digoxin 25 μM (P-gp substrate validation), without verapamil
observable: efflux ratio at 25 µM
The reply should be a number, written without any unit.

Inquiry: For the compound shown here, C[C@H]1O[C@@H](O[C@H]2[C@@H](O)C[C@H](O[C@H]3[C@@H](O)C[C@H](O[C@H]4CC[C@@]5(C)[C@H](CC[C@@H]6[C@@H]5C[C@@H](O)[C@]5(C)[C@@H](C7=CC(=O)OC7)CC[C@]65O)C4)O[C@@H]3C)O[C@@H]2C)C[C@H](O)[C@@H]1O [digoxin] , give the reported efflux ratio at 25 µM.
Reply text: 11
